Data origin: PubChem BioAssay (NCATS)

Tested on: CP329
Test: qHTS profiling for inhibitors of Plasmodium falciparum proliferation (AID 504749); note: nearly all actives have a fitted effect of over 60% in size
Details: P. falciparum in erythrocytes, SYBR Green DNA, 72 h; series mostly up to 28.7 µM
Results filed as inconclusive are left out. The source made the active and inactive calls. Calls come from the whole dose curve; as a rule, active = well fitted inhibition curve with a large enough effect; inconclusive = small, poorly fitted or top-dose-only effect; inactive = flat fitted curve, though single readings scatter.
Classes used: active, inactive

- NS(=O)(=O)c1cc(C(=O)O)cc(N2CCCC2)c1Oc1ccccc1: inactive
- OC1C(O)C(O)C(O)C(O)C1O (configuration not stated): inactive
- CCN1/C(=C/C=C/c2sc3ccccc3[n+]2CC)Sc2ccccc21: active
- NC(=S)N/N=C/c1cccnc1: inactive
- CC(C)Cc1ccc(CC(=O)O)cc1: inactive
- CCOC(=O)c1c(N)sc2c1CCN(Cc1ccccc1)C2: active
- CC(C)Cn1cnc2c1c(=O)n(C)c(=O)n2C: inactive
- CCOC(=O)c1ccc(N)cc1: inactive
- Cc1ccc(-c2ncc(Cl)cc2-c2ccc(S(C)(=O)=O)cc2)cn1: inactive
- C#C[C@]1(OC(C)=O)CC[C@H]2[C@@H]3CCC4=C/C(=N/O)CC[C@@H]4[C@H]3CC[C@@]21CC: inactive
- CN1CCN(c2cc3c(cc2F)c(=O)c(C(=O)O)cn3-c2ccc(F)cc2)CC1: inactive
- COc1ccc(CCN(C)CCCN2CCc3cc(OC)c(OC)cc3CC2=O)cc1OC: inactive
